# Target or system: T1, human OX40-FC-biotin (human OX40 recombinant protein with Fc tag, Acro Biosystems OX40-H5255, labeled with … (human, UniProt P43489 29-216, labeled with biotin (site not stated)))
# T1 construct: range 29-216; Bought (Acro Biosystems OX40-H5255; printed once as OXO-H5255), expressed in HEK293; also called human Bio-OX40-FC; not shown: Fc tag of the bought protein
# T1 sequence (looked up): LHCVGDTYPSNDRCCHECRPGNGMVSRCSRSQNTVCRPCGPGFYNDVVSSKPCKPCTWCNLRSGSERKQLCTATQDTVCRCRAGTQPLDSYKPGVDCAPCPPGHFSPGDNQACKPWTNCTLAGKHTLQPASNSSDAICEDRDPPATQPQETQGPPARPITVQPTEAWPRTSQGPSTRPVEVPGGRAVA
# Assay summary: capture ELISA, biotin-OX40-Fc
Answer each item with its documented EC50.
Answer in µg/mL, number only, no unit symbol.

Identify measured EC50 associated with murine monoclonal antibody m4B5 (antibody, V domains shown, Murine hybridoma monoclonal) VH: QVQLKQSGPGLVQPSQSLSITCTVSGFSLTSYGLHWFRQSPGKGLEWLGVIWSGGSTDYNAAFISRLSISKDDSKSQVFFKMNSLQADDTAIYYCAREEYDVWGTGTTVTVSS VL: DIQMTQTASSLSASLGDRVTISCRASQDISNYLNWYQQKPDGTVKLLIYYTSRLHSGVPSRFSGSGSGTDYSLTISNLEQEDVATYFCQQGNTLPWTFGGGTKLEIK
0.58

Identify measured EC50 associated with humanized antibody hu4B5-V10 (antibody, human IgG1, V domains shown, hu4B5 VH3 + hu4B5 VL1; human IgG1 / human Kappa constant regions) VH: QVQLKESGPGLVKPSETLSLTCTVSGFSLTSYGLHWFRQPPGKGLEWIGVIWSGGSTDYNAAFISRVTISKEDSKSQVSLKLSSVTAADTAVYYCAREEYDVWGQGTTVTVSS VL: DIQMTQSPSSLSASVGDRVTITCRASQDISNYLNWYQQKPGKVPKLLIYYTSRLHSGVPSRFSGSGSGTDYTLTISSLQPEDVATYYCQQGNTLPWTFGGGTKVEIK
0.76

Identify measured EC50 associated with humanized antibody 2G3-hu1 (antibody, human IgG1, V domains shown, hu2G3 VH1 + hu2G3 VL1) VH: QVQLQESGPGLVKPSETLSLTCTVSGYSISRYSVHWVRQPPGKGLEWIGMIWDGGNTDYNSALKSRFTISRDNSKNTLYLQMNSLRAEDTAVYYCARNPLYFSYAMDYWGQGTLVTVSS VL: DIQMTQSPSSLSASVGDRVTITCRASQDISNYLNWYQQKPDQSPKLLIIYTSRLQSGVPSRFSGSGSGTDYTLTISSLQPEDFATYYCQQVNTFPFTFGQGTKLEIK
0.886
